system: recombinant human TFPI (tissue factor pathway inhibitor) (human, UniProt P10646 29-304)
assay.details: cell-based or functional assay
metric.name: FXa assay OD, 5 nM Ab, 10 nM TFPI

1. clone 1023 (antibody, V domains shown, scFv on yeast at selection; human IgG4/kappa IgG as purified) VH: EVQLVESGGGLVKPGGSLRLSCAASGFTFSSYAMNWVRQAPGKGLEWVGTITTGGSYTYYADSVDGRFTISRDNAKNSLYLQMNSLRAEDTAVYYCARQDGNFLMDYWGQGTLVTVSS VL: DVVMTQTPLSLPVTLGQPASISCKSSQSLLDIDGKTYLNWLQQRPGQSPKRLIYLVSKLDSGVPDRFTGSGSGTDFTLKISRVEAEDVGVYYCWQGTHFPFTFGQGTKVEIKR = 0.0695
